# assay_name: Competitive inhibition of aspartate aminotransferase in rat liver homogenate by Lineweaver-Burk plot method
# Format: tissue-based
reported_endpoint: Ki (µM)
Report only the number, with the unit µM understood.

Item NC(C(=O)O)C(F)(F)C(=O)O (racemic) : provide Ki 1000
